- system: T1, SulfoTyr C4 peptide (not fully specified; Y4, Y7 and Y9 sulfated (SO3); C-terminal biotin)
- T1 construct: also called C4 alpha chain peptide; human sulfotyrosinylated C4 peptide
- T1 peptide: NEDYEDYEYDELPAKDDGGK
- protocol.notes: ELISA, 50 nM mAb
Criterion: binding normalized to PSGL-1 strictly under 0.6. Met: rule met. Not met: rule not met.

binder: 05H03 (antibody, IgG4, V domains shown) VH: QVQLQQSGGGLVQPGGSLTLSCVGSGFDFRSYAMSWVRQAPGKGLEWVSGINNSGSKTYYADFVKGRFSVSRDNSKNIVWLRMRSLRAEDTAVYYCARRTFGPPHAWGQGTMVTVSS VL: DIVMTQSPLSLSVTPGEPASISCRSSQSLLHSNGYKYLDWYLQKPGQSPQLLIYMGSNRASGVPDRFSGSGSGTDFTLKISRVEAEDVGVYYCMQGLQSPLTFGGGTKVEIE
qualitative.label: rule met
--
binder: 08C07 (antibody, IgG4, V domains shown) VH: QMQLVQSGAEVKKPGSSVKVSCKASGGTFSNYGMIWVRQAPRQGLEWMGRIIPFLDKPDYSEKFQDRITFTADKSTSTVYMELRGLRSDDTAVYYCAKWTSTLQGITTGQTWGQGTLVTVSS VL: QPVLTQPPSASGTPGQRVTISCSGSSSNIGGSYMYWYQQFPGTAPKLLIYRNNQRPSGVPDRFSGSKSGTSASLAISGLRSEDEADYYCAAWDVSLSGWVFGGGTKLTVL
qualitative.label: rule not met
--
binder: 5E12 (antibody, V domains shown, Mouse hybridoma mAb; only variable domains given) VH: EIQLQQSGAELVRPGASVKLSCTASGFNIKDDYIHWVKQRPEQGLEWIGRIDPANGNTKSAPKFQDKATITADTSSNTAYLHLSSLTSEDTAVYYCSIRFAYWGQGTLVTVSA VL: DVVMTQTPLSLSVSLGDQASISCRSSQSLVYRNGDTYLHWFLQKPGQSPKLLIYKVSNRFSGVPDRFSGSGSGTDFTLKISRVEAEDLGIYFCSQNTHVPYTFGGGTKLEIK
qualitative.label: rule met
--
binder: 2E12 (antibody, V domains shown, Mouse hybridoma mAb; only variable domains given) VH: QVQLQQSGAELARPGASVKLSCKASGYTFTNYGLNWVKQRTGQGLEWIGEIYPRSGNTYYNEKFKGKATLTADKSSSTAYMQLSSLTSEDSAVYFCATEGAYWGQGTLVTVSA VL: DIVMTQTPLTLSVTIGQPASISCKSSQSLLHGNGKTYLNWLLQRPGQSPKLLIYLVSKLESGIPDRFSGSGSGTDFTLEISRVEAEDLGIYYCLQSTHFPRTFGGGTKLEIK
qualitative.label: rule met
--
binder: 02E06 (antibody, IgG4, V domains shown) VH: QVQLVQSGAEVKKPGASVKVSCKASGYSFTDYYMHWVRQAPGQGLEWMGWMNPNSGNTGYAQTFQGRVTMTRNTSISTAYMELSSLRSEDTAVYYCARGRRVRGTPTFEYWGQGTLVTVSS VL: QSVVTQPPSASGTPGQRVTISCSGRSSNIGSYTVNWFQHLPGTGPKLLIYGNNQRPSGVPGRFSGSKSGTSASLAISGLQSNDEATYYCAAWDDSLNGHYVFGTGTKVTVL
qualitative.label: rule not met
--
binder: 05A11 (antibody, IgG4, V domains shown) VH: EVKLLESGGGVVQPGRSLRLSCAASGFSFSAYGMHWVRQAPGKGLEWVSSISGSGDGTYYADSVKGRFTISRDNSKNTLYLQMNSLRAEDAAVYYCAKSVKGRGYFFDYWGQGTLVTVSS VL: DIVLTQSPSSLSASVGDRVTITCRASQSISSYLNWYQQKPGKAPKLLIYAASSLQSGVPSRFSGSGSGTDFTLSISNLQPEDFATYYCQQAYKFPRSFGGGTKVEFK
qualitative.label: rule met
--
binder: 10B03 (antibody, IgG4, V domains shown) VH: EVKLLESGGDLVQPGGSLRLSCAASGLTFSNYAMSWVRQAPGKGLEWVSAISGSGDNTYYADSVKGRFTISRDNSKNTLYLQMNSLRADDTAVYFCAKRDSWGQGTLVTVSS VL: QAVLTQPPSASGTPGQRVTISCSGSTSNIGSRDVYWYQHLPGTAPKLVIYRNDQRPSGVPDRFSGSKSGTSASLAISGLRSEDDADYYCAVWDNSLRGRVFGGGTKLTVL
qualitative.label: rule not met
--
binder: 02G01 (antibody, IgG4, V domains shown) VH: EVQLVQSGAEVKKPGASVKVSCKASGYTFTSYGISWVRQAPGQGLEWMGWISAYNGNTNYAQKLQGRVTMTTDTSTSTAYMELRSLRSDDTAVYYCARVTRLPGGGYAFDIWGQGTMVTVSL VL: QSVLTQPPSASGTPGQRITISCSGSTSNIGNKHVYWYQQFPGAAPKLLIHNTNKRPSGVPDRFSGSKSGTSASLAISGLQSDDEADYYCAAWDGSLSAWVFGGGTKLTVL
qualitative.label: rule not met
--
binder: 06C04 (antibody, IgG4, V domains shown) VH: EVQLVESGGGLVQPGGSLRLSCAASGFTFSDHYMDWVRQAPGKGLEWVGRSRNKVKSYTTAYAASVEGRITISRDDSKNSLYLEMNSLKTEDTAVYYCVRVRWGGAFDIWGQGTMVTVSS VL: QPVLTQPPSASGSPGQSVTISCTGTSSDVGGYNYVSWYQQHPGKAPKLMIYEVSKRPSGVPDRFSGSKSGNTASLTVSGLQAEDEADYYCSSYAGSNNLRVFGGGTKLTVL
qualitative.label: rule not met
